// pIC50 lookup, one value per entry
Measurement Description: Cytotoxicity against human UCH2 cells assessed as reduction in cell viability incubated for 72 hrs by alamar blue assay
Format: functional, cell-based
Condition: UCH2, 72 h
Please keep in mind that pIC50 is minus log10 of the molar concentration; only the number is needed.

These solved cases illustrate the format of a correct answer.
entry_smiles=Clc1nss/c1=N\c1nccs1 observable=pIC50 quantitative_result=4.66
entry_smiles=Cc1cc(/N=c2\ssnc2Cl)n[nH]1 observable=pIC50 quantitative_result=4.74
entry_smiles=Clc1nss/c1=N\c1cc(-c2ccccc2)n[nH]1 observable=pIC50 quantitative_result=4.42

Input line: Tell me its pIC50 given `Clc1nss/c1=N\c1cccc(Br)c1` as the entry.
Output line: 4.23

Input line: Tell me its pIC50 given `N#CC1=Nc2c(c(-c3ccccc3)nn2-c2ccccc2)SS1` as the entry.
Output line: 4.17

Input line: Tell me its pIC50 given `O=C(OCCN1CCN(c2nss/c2=N\c2ccccc2)CC1)c1ccccc1` as the entry.
Output line: 4.47

Input line: Tell me its pIC50 given `CSc1ccc(/N=c2\ssnc2Cl)cc1` as the entry.
Output line: 4.43

Input line: Tell me its pIC50 given `CN(CCN1CCN(c2nssc2=O)CC1)c1ccccc1` as the entry.
Output line: 4.77

Input line: Tell me its pIC50 given `N#Cc1cc(Br)ccc1/N=c1\ssnc1N1CCN(CCCl)CC1` as the entry.
Output line: 4.64

Input line: Tell me its pIC50 given `CCCCOc1ccc(/N=c2\ssnc2Cl)cc1` as the entry.
Output line: 4.32

Input line: Tell me its pIC50 given `Clc1nss/c1=N\c1ccc(Oc2ccccc2)cc1` as the entry.
Output line: 4.48

Input line: Tell me its pIC50 given `N#CSCCN1CCN(c2nssc2=O)CC1` as the entry.
Output line: 4.85

Input line: Tell me its pIC50 given `c1ccc(/N=c2\ssnc2N2CCN(CCNc3ccccc3)CC2)cc1` as the entry.
Output line: 4.68

* * *

Measurement Description: Cytotoxicity against human UCH2 cells assessed as reduction in cell viability incubated for 72 hrs by alamar blue assay
Type: functional, cell-based
Condition: UCH2, 72 h
Response field label: string, one of met (IC50 strictly below 40 µM) or not met.

Below, 10 compounds whose answers are already recorded.
entry_smiles=O=c1ssnc1N1CCN(CCSc2nc3ccccc3s2)CC1 class_assignment=met
entry_smiles=O=S(=O)(Nc1ncccn1)c1ccc(/N=c2\ssnc2Cl)cc1 class_assignment=met
entry_smiles=Clc1nss/c1=N\c1cc(-c2ccccc2)nn1Cc1ccccc1 class_assignment="not met"
entry_smiles=CC.FC(F)(F)Oc1ccc(/N=c2\ssnc2Cl)cc1Cl class_assignment="not met"
entry_smiles=FC(F)(F)Oc1ccc(/N=c2\ssnc2Cl)cc1Br class_assignment="not met"
entry_smiles=N#Cc1c(Br)cccc1/N=c1\ssnc1Cl class_assignment="not met"
entry_smiles=Cc1cc(/N=c2\ssnc2Cl)n(Cc2ccccc2)n1 class_assignment=met
entry_smiles=Cc1cc(OC(F)(F)F)ccc1/N=c1\ssnc1Cl class_assignment="not met"
entry_smiles=Clc1nss/c1=N\c1ccc2c(c1)OCO2 class_assignment=met
entry_smiles=N#CSCCN1CCN(c2nss/c2=N\c2ccccc2)CC1 class_assignment=met

Input line: Is IC50 strictly under 40 µM for the entry `Clc1nss/c1=N\c1ccc(Br)cc1` ?
Output line: not met

Input line: Is IC50 strictly under 40 µM for the entry `O=S(=O)(Nc1nccs1)c1ccc(/N=c2\ssnc2Cl)cc1` ?
Output line: met

* * *

Tested on: MCF7
Measurement Description: Cytotoxicity against human MCF7 cells assessed as reduction in cell viability incubated for 72 hrs by alamar blue assay
Assay type: functional, cell-based
Condition: MCF7, 72 h
Response field label: string, one of 1.0 (IC50 strictly below 40 µM) or 0.0.

entry_smiles=N#CSCCN1CCN(c2nssc2=O)CC1 system_name=MCF7 class_assignment=1.0
entry_smiles=Clc1nss/c1=N\c1ccc(OCc2ccccc2)cc1 system_name=MCF7 class_assignment=0.0

Input line: Is IC50 strictly under 40 µM for the entry `O=C1c2ccccc2C(=O)N1CCN1CCN(c2nssc2=S)CC1` ?
Output line: 0.0

Input line: Is IC50 strictly under 40 µM for the entry `Cc1cc(/N=c2\ssnc2Cl)n(Cc2ccccc2)n1` ?
Output line: 1.0

Input line: Is IC50 strictly under 40 µM for the entry `CN(CCN1CCN(c2nssc2=O)CC1)c1ccccc1` ?
Output line: 1.0

Input line: Is IC50 strictly under 40 µM for the entry `N#Cc1c(Br)cccc1/N=c1\ssnc1Cl` ?
Output line: 1.0

Input line: Is IC50 strictly under 40 µM for the entry `Clc1nss/c1=N\c1cc(-c2ccccc2)n[nH]1` ?
Output line: 1.0

* * *

System Name: UniProtKB Q15758
Sequence (Q15758 whole entry): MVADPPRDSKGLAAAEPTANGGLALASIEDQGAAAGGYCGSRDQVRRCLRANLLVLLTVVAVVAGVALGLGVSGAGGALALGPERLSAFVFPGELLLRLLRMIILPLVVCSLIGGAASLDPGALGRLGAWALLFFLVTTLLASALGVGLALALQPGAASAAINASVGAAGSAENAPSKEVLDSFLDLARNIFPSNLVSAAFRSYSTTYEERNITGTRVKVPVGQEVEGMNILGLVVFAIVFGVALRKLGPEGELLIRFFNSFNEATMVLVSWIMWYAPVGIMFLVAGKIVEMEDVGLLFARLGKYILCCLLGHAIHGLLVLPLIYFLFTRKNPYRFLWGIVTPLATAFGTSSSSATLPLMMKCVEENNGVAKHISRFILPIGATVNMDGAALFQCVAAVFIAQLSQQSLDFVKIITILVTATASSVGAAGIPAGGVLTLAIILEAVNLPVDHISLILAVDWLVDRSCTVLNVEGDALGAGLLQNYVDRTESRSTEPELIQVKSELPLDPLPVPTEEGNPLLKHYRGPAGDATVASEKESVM
Observable: IC50 (µM)
The reply should contain only the number, in µM.

Input line: Tell me its IC50 given `CC.FC(F)(F)Oc1ccc(/N=c2\ssnc2Cl)cc1Cl` as the entry.
Output line: 8.1

* * *

Tested on: DU-145
Measurement Description: Cytotoxicity against human DU-145 cells assessed as reduction in cell viability incubated for 72 hrs by alamar blue assay
Type: functional, cell-based
Condition: DU-145, 72 h
Observable: pIC50
Please keep in mind that pIC50 is minus log10 of the molar concentration; only the number is needed.

These solved cases illustrate the format of a correct answer.
entry_smiles=Clc1nss/c1=N\c1cccc(Br)c1 quantitative_result=4.57
entry_smiles=Clc1nss/c1=N\c1ccc(OCc2ccccc2)cc1 quantitative_result=4.35

Consider now this further molecule.
Input line: Tell me its pIC50 given `O=S(=O)(Nc1nccs1)c1ccc(/N=c2\ssnc2Cl)cc1` as the entry.
Output line: 4.04

* * *

System: Feline immunodeficiency virus
Measurement Description: Antiviral activity against Feline immunodeficiency virus
Type: functional, organism-based
// EC50 lookup, one value per entry
The reply should contain only the number, in nM.

entry_smiles=CCOC(=O)c1c2nssc-2c(Cl)c1Cl observable=EC50 quantitative_result=310

Consider now this further compound.
Input line: Tell me its EC50 given `CCOC(=O)c1c2n[se]sc-2c(Cl)c1Cl` as the entry.
Output line: 82

* * *

// pIC50 lookup, one value per entry
System: MCF7
Measurement Description: Cytotoxicity against human MCF7 cells assessed as reduction in cell viability incubated for 72 hrs by alamar blue assay
Assay type: functional, cell-based
Condition: MCF7, 72 h
Please keep in mind that pIC50 is minus log10 of the molar concentration; only the number is needed.

Input line: Tell me its pIC50 given `Clc1nss/c1=N\c1nccs1` as the entry.
Output line: 4.35

Input line: Tell me its pIC50 given `Clc1nss/c1=N\c1cc(-c2ccccc2)nn1Cc1ccccc1` as the entry.
Output line: 4.52

Input line: Tell me its pIC50 given `Clc1nss/c1=N\c1ccc(Br)cc1` as the entry.
Output line: 4.96

Input line: Tell me its pIC50 given `Clc1nss/c1=N\c1cccc(Br)c1` as the entry.
Output line: 5.17

Input line: Tell me its pIC50 given `CSc1ccc(/N=c2\ssnc2Cl)cc1` as the entry.
Output line: 4.44

Input line: Tell me its pIC50 given `CC.FC(F)(F)Oc1ccc(/N=c2\ssnc2Cl)cc1Cl` as the entry.
Output line: 4.06

Input line: Tell me its pIC50 given `O=S(=O)(Nc1nccs1)c1ccc(/N=c2\ssnc2Cl)cc1` as the entry.
Output line: 4.31

Input line: Tell me its pIC50 given `FC(F)(F)Oc1ccc(/N=c2\ssnc2Cl)cc1Br` as the entry.
Output line: 4.14

Input line: Tell me its pIC50 given `N#Cc1cc(Br)ccc1/N=c1\ssnc1N1CCN(CCCl)CC1` as the entry.
Output line: 5.39

* * *

Tested on: MCF7
Measurement Description: Cytotoxicity against human MCF7 cells assessed as reduction in cell viability incubated for 72 hrs by alamar blue assay
Format: functional, cell-based
Condition: MCF7, 72 h
// pIC50 lookup, one value per entry
Please keep in mind that pIC50 is minus log10 of the molar concentration; only the number is needed.

entry_smiles=N#CSCCN1CCN(c2nss/c2=N\c2ccccc2)CC1 system_name=MCF7 quantitative_result=4.49
entry_smiles=Cc1cc(/N=c2\ssnc2Cl)n[nH]1 system_name=MCF7 quantitative_result=4.74
entry_smiles=O=C(OCCN1CCN(c2nss/c2=N\c2ccccc2)CC1)c1ccccc1 system_name=MCF7 quantitative_result=4.77
entry_smiles=N#CC1=Nc2c(c(-c3ccccc3)nn2Cc2ccccc2)SS1 system_name=MCF7 quantitative_result=4.27
entry_smiles=O=c1ssnc1N1CCN(CCSc2nc3ccccc3s2)CC1 system_name=MCF7 quantitative_result=5.00

Input line: # lookup: MCF7 pIC50, key = `Cc1cc(OC(F)(F)F)ccc1/N=c1\ssnc1Cl`
Output line: 4.37

Input line: # lookup: MCF7 pIC50, key = `CCCCOc1ccc(/N=c2\ssnc2Cl)cc1`
Output line: 4.38

Input line: # lookup: MCF7 pIC50, key = `c1ccc(/N=c2\ssnc2N2CCN(CCNc3ccccc3)CC2)cc1`
Output line: 5.00

Input line: # lookup: MCF7 pIC50, key = `Clc1nss/c1=N\c1ccc(Oc2ccccc2)cc1`
Output line: 4.46

Hello, the source for this data is ChEMBL document CHEMBL4819119, in case you need it.
